Target: human recombinant ETA receptors (Homo sapiens)
Construct: expressed in transfected cells; host or cells: CHO cells (microsomal membranes)
Sequence (P25101 21-427): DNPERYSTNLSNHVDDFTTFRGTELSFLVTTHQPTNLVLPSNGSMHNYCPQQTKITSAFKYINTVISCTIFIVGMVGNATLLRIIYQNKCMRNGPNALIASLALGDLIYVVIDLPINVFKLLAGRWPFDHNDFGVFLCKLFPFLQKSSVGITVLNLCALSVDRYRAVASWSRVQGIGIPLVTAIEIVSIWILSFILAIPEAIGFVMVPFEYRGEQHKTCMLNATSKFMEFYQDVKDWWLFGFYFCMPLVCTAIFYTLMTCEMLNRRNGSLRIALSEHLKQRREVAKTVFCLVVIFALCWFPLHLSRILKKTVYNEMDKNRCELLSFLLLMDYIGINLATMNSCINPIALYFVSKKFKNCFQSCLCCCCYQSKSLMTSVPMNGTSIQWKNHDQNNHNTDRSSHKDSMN
Test: Inhibition of endothelin binding to membranes from CHO cells carrying human ET receptors (ETA)
Details: membranes of CHO cells expressing human recombinant ETA receptors, 8 pM [125I]ET-1, 2 h at 20° C.
result type: pIC50
Numbers only, as −log10 of the molar value.

{"record smiles": "COc1ccccc1Oc1c(NS(=O)(=O)c2ccc(C(C)(C)C)cc2)nc(C2CC2)nc1OCCNS(=O)(=O)c1ccc(C)cc1", "experimental target": "human recombinant ETA receptors (Homo sapiens)", "result type": "pIC50", "value": 5.31}
{"record smiles": "COc1ccccc1Oc1c(NS(=O)(=O)c2ccc(C(C)C)cn2)nc(N2CCOCC2)nc1OCCNS(=O)(=O)c1cccs1", "experimental target": "human recombinant ETA receptors (Homo sapiens)", "result type": "pIC50", "value": 6.23}
{"record smiles": "CCCS(=O)(=O)NCCOc1nc(-c2cc(OC)c(OC)c(OC)c2)nc(NS(=O)(=O)c2ccc(C(C)C)cn2)c1Oc1ccccc1OC", "experimental target": "human recombinant ETA receptors (Homo sapiens)", "result type": "pIC50", "value": 6.58}
{"record smiles": "COc1ccccc1Oc1c(NS(=O)(=O)c2ccc(C(C)C)cn2)nc(C2CC2)nc1OCCNS(=O)(=O)c1ccc(C)cc1", "experimental target": "human recombinant ETA receptors (Homo sapiens)", "result type": "pIC50", "value": 5.98}
{"record smiles": "COc1ccccc1Oc1c(NS(=O)(=O)c2ccc(C(C)(C)C)cc2)nc(-c2ncccn2)nc1OCCNS(=O)(=O)c1cccs1", "experimental target": "human recombinant ETA receptors (Homo sapiens)", "result type": "pIC50", "value": 7.20}

Incoming: Give the reported value of pIC50 for this record: CCS(=O)(=O)NCCOc1nc(C2CC2)nc(NS(=O)(=O)c2ccc(C(C)(C)C)cc2)c1Oc1ccccc1OC
Outgoing: 6.92
